Tested on: BDF1 mice, P388 leukemia ip, median survival T/C
Assay: NCI In Vivo Anticancer Drug Screen. Data for tumor model P388 Leukemia (intraperitoneal) in B6D2F1 (BDF1) mice
Settings: endpoint: median survival time; dose: 6.25 mg/kg/injection; schedule: Q04DX003 (ip); vehicle: saline; higher = longer survival
Inconclusive results and toxic doses are left out.
ASSAY READOUT: T/C

COMPOUND	T/C
CCCCCCCCCCCCCCCCCC[N+](C)(C)C	120 % of control
C=CC[Se]c1nc(N)nc2c1ncn2C1OC(CO)C(O)C1O (stereo not given)	100 % of control
CCOC(=O)Nc1cc(NC(C)CCCN(CC)CC)c2ncc(-c3ccc(Cl)c(Cl)c3)nc2n1 (stereo not given) (tested in a mixture with another compound)	95 % of control

Form field T/C for item `Clc1ccc2nc(CI)c(CI)nc2c1` on BDF1 mice, P388 leukemia ip, median survival T/C: 108 % of control

The compound O=[N+]([O-])CC(OCCO)C(Cl)(Cl)Cl (stereo not given) , when measured on BDF1 mice, P388 leukemia ip, median survival T/C, yielded T/C of 100 % of control

----------
Tested on: BDF1 mice, P388 leukemia ip, median survival T/C
Experiment: NCI In Vivo Anticancer Drug Screen. Data for tumor model P388 Leukemia (intraperitoneal) in B6D2F1 (BDF1) mice
Settings: endpoint: median survival time; dose: 6.25 mg/kg/injection; schedule: Q01DX009 (ip); vehicle: Klucel (hydroxypropylcellulose) (HPC); higher = longer survival
Toxic doses and inconclusive results are not listed.
Entries and their T/C

MOLECULE	MEASURED ON	RECORDED VALUE
COc1ccc(OCC(O)CN2CCN(c3ccc(Cl)cc3)CC2)cc1 (configuration not stated)	BDF1 mice, P388 leukemia ip, median survival T/C	100 % of control
c1ccc(C[P+](c2ccccc2)(c2ccccc2)c2ccccc2)cc1	BDF1 mice, P388 leukemia ip, median survival T/C	118 % of control
CC(C)=CCc1c(O)ccc(C(=O)/C=C/c2ccccc2)c1O	BDF1 mice, P388 leukemia ip, median survival T/C	106 % of control

Lab book: T/C of C=C1C(=O)OC2C3OC(C)(CCC(O)C3COC(C)=O)CC(OC(=O)/C(=C/C)COC(C)=O)C12 (configuration not stated) noted as 112 % of control

T/C measured on NC1=NC(=S)C2N=C(N=Nc3ccc(C(=O)NC(CCC(=O)O)C(=O)O)cc3)N=C2N1 (configuration not stated) = 87 % of control

// recorded T/C for CC(=O)OC1=NC(C)c2c1cc(OC(C)=O)[nH]c2=O (configuration not stated) : 88 % of control

Entry under test: C=C1C(=O)OC2/C=C(\CO)C(OC(C)=O)CC(O)/C(C)=C/C(OC(=O)C(C)CC)C12 (configuration not stated) . Its T/C was 110 % of control

----------
System: BDF1 mice, P388 leukemia ip, median survival T/C
Test: NCI In Vivo Anticancer Drug Screen. Data for tumor model P388 Leukemia (intraperitoneal) in B6D2F1 (BDF1) mice
Details: endpoint: median survival time; dose: 25.0 mg/kg/injection; schedule: Q04DX003 (ip); vehicle: water; higher = longer survival
Protocol: The antitumor activity of compounds was measured in mice bearing transplantable tumors. Survival or tumor size were measured and the results are expressed as the measurement made in the treated group (T) divided by the measurement made in the vehicle treated control group (C). The tumor model used in this assay is P388 Leukemia (intraperitoneal) in B6D2F1 (BDF1) mice
Inconclusive results and toxic doses are left out.
Below is a list of entries, each paired with its recorded T/C value.

Please review the following examples before continuing.
COMPOUND	T/C
Clc1ccc(-c2cc(=[N+]3CCC4(CC3)SSC3(CC[N+](=c5cc(-c6ccc(Cl)cc6)ss5)CC3)S4)ss2)cc1 (stereo unspecified)	94 % of control
COc1cc(OC)cc(C(=O)N2CC2)c1	105 % of control
O=C1NC(c2cccs2)(c2cccs2)C(=O)N1Cl	97 % of control

Lookup result for `NCCCn1c2ccccc2c2cnccc21` ; measured T/C: 103 % of control

The measured T/C associated with COC1(c2ccc(Br)cc2)OC1(C)C (stereo unspecified) reads 101 % of control

T/C reported for this compound O=C(N=c1cc(-c2ccc(Cl)cc2)ss1)C(Cc1ccccc1)N1C(=O)c2ccccc2C1=O (stereo unspecified) : 110 % of control

----------
System: BDF1 mice, P388 leukemia ip, median survival T/C
Experiment: NCI In Vivo Anticancer Drug Screen. Data for tumor model P388 Leukemia (intraperitoneal) in B6D2F1 (BDF1) mice
Conditions: endpoint: median survival time; dose: 100.0 mg/kg/injection; schedule: Q01DX001 (ip); vehicle: saline sonified; higher = longer survival
Toxic doses and inconclusive results are not listed.
ASSAY READOUT: T/C

Known results for compounds:
COMPOUND	T/C
Nc1cncc2ncc(-c3ccc(Cl)c(Cl)c3)nc12	91 % of control
CCCCN(CCO)C(C#CC(C)(C)O)C(C)C (stereo not given)	110 % of control
O=C1c2cc([N+](=O)[O-])ccc2-c2cc(Cl)c(Cl)cc21	100 % of control
CCCCCCCCCOc1ccc(C=O)cc1OC	100 % of control

Documented T/C of CCCCCC1(O)C2CCCC1CCC2 (stereo not given) : 105 % of control

----------
System: BDF1 mice, P388 leukemia ip, median survival T/C
Test: NCI In Vivo Anticancer Drug Screen. Data for tumor model P388 Leukemia (intraperitoneal) in B6D2F1 (BDF1) mice
Details: endpoint: median survival time; dose: 100.0 mg/kg/injection; schedule: Q01DX009 (ip); vehicle: saline with Tween-80; higher = longer survival
Inconclusive results and toxic doses are left out.
ASSAY READOUT: T/C

Known T/C results, listed for orientation:
COMPOUND	ASSAY READOUT	RECORDED VALUE
CS(=O)C/C(=C/CCCl)c1cccs1 (stereo unspecified)	T/C	94 % of control
c1ccc(-c2nc3ccccc3nc2-c2ccc(Cc3ccc(-c4nc5ccccc5nc4-c4ccccc4)cc3)cc2)cc1	T/C	103 % of control
Cc1cc(C)c2nc3c(c(C(O)C4CCCCN4)c2c1)CC/C3=C\c1ccc(Cl)cc1 (stereo unspecified)	T/C	100 % of control

The value of T/C measured for the compound `S=C1SCCS1` turned out to be 104 % of control

In plain terms, `Cc1nnc2sc3c(Cl)c4nn5c(C)nnc5sc4c(Cl)c3nn12` has a documented T/C of 100 % of control

GET /value?item= `Cc1cc2nccc(/C=C/c3ccc(N(C)C)cc3)c2cc1C` &field=T/C returns 120 % of control

----------
System: BDF1 mice, P388 leukemia ip, median survival T/C
Assay: NCI In Vivo Anticancer Drug Screen. Data for tumor model P388 Leukemia (intraperitoneal) in B6D2F1 (BDF1) mice
Conditions: endpoint: median survival time; dose: 150.0 mg/kg/injection; schedule: Q04DX003 (ip); vehicle: saline
Method: The antitumor activity of compounds was measured in mice bearing transplantable tumors. Survival or tumor size were measured and the results are expressed as the measurement made in the treated group (T) divided by the measurement made in the vehicle treated control group (C). The tumor model used in this assay is P388 Leukemia (intraperitoneal) in B6D2F1 (BDF1) mice
Toxic doses and inconclusive results are not listed. The calls were made as follows: active = survival T/C of 150% or more; inactive = T/C below 125% in these data.
A correct response names exactly one class from active, inactive

Look over these answered cases.
MOLECULE	CATEGORY LABEL
N#CC(c1ccccc1)C1CCCCC1 (centres undefined)	inactive
COC(=O)C1(C(=O)OC)C2CC(C)=C(C)CC21 (centres undefined)	inactive
Nc1nc(SN=Nc2ccc(S(=O)(=O)O)cc2)c2[nH]cnc2n1	inactive

Continue with the molecule presented below.
Q: Check the results log: what was the call for CCc1c2cc(OC)c(OC)cc2cc2c3cc(OC)c(OC)cc3cc[n+]12 (tested in a mixture with another compound) ?
A: active

----------
T/C values by entry
Test system: BDF1 mice, P388 leukemia ip, median survival T/C
Assay: NCI In Vivo Anticancer Drug Screen. Data for tumor model P388 Leukemia (intraperitoneal) in B6D2F1 (BDF1) mice
Settings: endpoint: median survival time; dose: 100.0 mg/kg/injection; schedule: Q04DX003 (ip); vehicle: saline with Tween-80; higher = longer survival
Toxic doses and inconclusive results are not listed.

Before answering, review these 4 worked examples.
COMPOUND	MEASURED ON	RECORDED VALUE
CC/C(=N/O)c1ccccc1	BDF1 mice, P388 leukemia ip, median survival T/C	90 % of control
Nc1n[nH]c(N)n1.[Ni]	BDF1 mice, P388 leukemia ip, median survival T/C	91 % of control
CC1(C)CN(Cc2ccccc2)C(C)(C)CN1N	BDF1 mice, P388 leukemia ip, median survival T/C	111 % of control
CCCCS(=O)(=O)OCCCCOS(=O)(=O)CCCC	BDF1 mice, P388 leukemia ip, median survival T/C	104 % of control

For C#CC(O)C(CC)CCCC (stereo not given) the compound record lists T/C as 100 % of control

Lab note: measured T/C of `COc1ccc(CNCCNCc2ccc(OC)c(OC)c2)cc1OC` was 115 % of control

T/C for `CC(=O)N/N=C(/C)C(O)(c1ccccc1)c1ccccc1` is 103 % of control

Data point: `CCOC(=O)c1c(OCCCc2ccc(F)cc2)cc2ccc3ccccc3c2c1OCCCc1ccc(F)cc1` ; T/C = 86 % of control

# T/C of `O=C(/C=N/O)Nc1cc(Cl)c(Cl)cc1Cl` = 100 % of control

Entry `CCOC(=O)C(=CN1CCOCC1)C(=O)OCC` — recorded T/C = 100 % of control

For this compound ( `CCOc1ccc(Nc2cc([N+](=O)[O-])ccc2C(=O)O)cc1` ), measured T/C is 90 % of control

Please fill in: T/C reported for `C[C@]12CC[C@@H](O)C[C@H]1CC[C@@H]1[C@@H]2CC[C@]2(C)C(=O)CC[C@@H]12` = 105 % of control

So for `COc1ccccc1NC(=O)Oc1ccc(OCc2ccccc2)cc1` , the logged T/C turned out to be 95 % of control

Please fill in: T/C reported for `Cc1c(Cl)c(Cl)c(Cl)c(Cl)c1Cl` = 104 % of control

Sample `c1ccc(P(=NC2CCCC2)(c2ccccc2)c2ccccc2)cc1` ; T/C observed: 110 % of control
